- target.or.system: B-cat-Halo (beta-catenin HaloTag NanoBRET construct expressed in HEK293 cells) (UniProt P35222)
- Sequence (P35222 whole entry): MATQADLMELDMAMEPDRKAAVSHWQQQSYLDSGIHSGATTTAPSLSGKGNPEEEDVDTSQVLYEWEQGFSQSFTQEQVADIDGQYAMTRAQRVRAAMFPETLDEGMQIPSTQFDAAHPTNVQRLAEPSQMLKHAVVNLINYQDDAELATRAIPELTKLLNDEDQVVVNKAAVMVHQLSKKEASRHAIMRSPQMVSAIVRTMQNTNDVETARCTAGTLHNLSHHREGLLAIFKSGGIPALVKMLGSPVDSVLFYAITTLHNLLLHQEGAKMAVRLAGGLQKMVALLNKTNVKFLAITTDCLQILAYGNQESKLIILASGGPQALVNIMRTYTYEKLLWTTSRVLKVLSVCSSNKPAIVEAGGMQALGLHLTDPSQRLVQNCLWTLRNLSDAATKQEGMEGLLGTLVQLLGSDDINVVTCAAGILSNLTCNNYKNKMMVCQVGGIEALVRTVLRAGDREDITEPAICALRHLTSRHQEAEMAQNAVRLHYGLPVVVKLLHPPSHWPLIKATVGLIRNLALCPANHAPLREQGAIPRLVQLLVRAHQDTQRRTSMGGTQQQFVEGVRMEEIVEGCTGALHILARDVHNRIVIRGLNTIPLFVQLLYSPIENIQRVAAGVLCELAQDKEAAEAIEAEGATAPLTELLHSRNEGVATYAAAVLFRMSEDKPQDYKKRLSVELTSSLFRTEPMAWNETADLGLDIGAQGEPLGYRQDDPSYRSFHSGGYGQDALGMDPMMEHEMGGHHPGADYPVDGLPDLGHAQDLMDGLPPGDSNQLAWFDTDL
- assay: NanoBRET in HEK293 cells, Bcat-Halo / TCF4-Luc (competitor TCF4-Luc); absolute IC50
Starred links: 1 amine or outer side, 2 acyl side, 3 side chain; linkers in the order of their positions; H or OH if unused. Positions of bridges follow the written chain, without caps; N, C: chain ends. Non-standard residues stand in square brackets, D forms with d. Primed or numbered codes have the meaning given here. B5(5) = 2,2-bis(4-pentenyl)glycine, 2-amino-2-(pent-4-en-1-yl)hept-6-enoic acid (stitching residue), C=CCCCC(CCCC=C)(N[*:1])C(=O)[*:2]; PyrS2 = (S)-3-amino-1-((pent-4-en-1-yloxy)carbonyl)pyrrolidine-3-carboxylic acid, C=CCCCOC(=O)N1CC[C@@](N[*:1])(C(=O)[*:2])C1; Phe(3-COOH) = N[C@@H](Cc1cccc(C(=O)O)c1)C(=O)O; Phe(2-CF3) = N[C@@H](Cc1ccccc1C(F)(F)F)C(=O)O; Bta = N[C@@H](Cc1csc2ccccc12)C(=O)O; αAllylPro = C=CC[C@@]1(C(=O)O)CCCN1; tBuAla = CC(C)(C)C[C@H](N)C(=O)O
property.measured: IC50 (µM)

A. Ac-[αAllylPro]D[tBuAla][B5(5)]D[Phe(3-COOH)]AAFL[PyrS2][Phe(2-CF3)][Bta]QL[dT]-NH2 (staple 1-4, 4-11) [I-2397]
B. Ac-[αAllylPro]D[tBuAla][B5(5)]D[Phe(3-COOH)]AAFL[PyrS2][Phe(2-CF3)][Bta]QVA-NH2 (staple 1-4, 4-11) [I-2401]
C. Ac-[αAllylPro]D[tBuAla][B5(5)]D[Phe(3-COOH)]AAFL[PyrS2][Phe(2-CF3)][Bta]QFA-NH2 (staple 1-4, 4-11) [I-2400]
### Prompt Could you list the above binders by IC50, going from the biggest number down? List each label, following the requested order.
### Response A, B, C

Where do the numbers come from? From patent US20240116985A1.
